Cited source: the supplement of paper PMC5908809

- Tested on: KAI3 (IL-2 2.5 ng/mL)
- ASSAY_TEXT: percent inhibition of viability; higher = more inhibition
- STUDY_CONDITIONS: 72 h; 10000 nM
percent inhibition of viability less than 20% is 1 (yes); percent inhibition of viability greater than or equal to 20% is 0 (no).

Please review the entries below; each comes with its answer.
COMPOUND	ASSIGNED_CATEGORY
CCN(CC)C(=S)SSC(=S)N(CC)CC [Disulfiram] (max concentration tested 100000 nM)	0 (no)
COc1cc(Nc2ncc(F)c(Nc3ccc4c(n3)NC(=O)C(C)(C)O4)n2)cc(OC)c1OC [Tamatinib] (max concentration tested 10000 nM)	0 (no)
COCC1(CO)C(=O)C2CCN1CC2 (configuration not stated) [APR-246] (max concentration tested 10000 nM)	1 (yes)
COC(=O)c1ccc2c(c1)NC(=O)/C2=C(\Nc1ccc(N(C)C(=O)CN2CCN(C)CC2)cc1)c1ccccc1 [Nintedanib] (max concentration tested 10000 nM)	0 (no)

Answer whether the compound CN(C)C(=O)c1cc2cnc(Nc3ccc(N4CCNCC4)cn3)nc2n1C1CCCC1 [NVP-LEE011] (max concentration tested 10000 nM) has percent inhibition of viability strictly less than 20%
0 (no)

----------
The following compounds are shown together with reported percent inhibition of viability values.
- Tested on: normal primary NK cells, pool 2 (3 donors) (IL-2 2.5 ng/mL)
- ASSAY_TEXT: percent inhibition of viability; higher = more inhibition
- STUDY_CONDITIONS: 72 h; 10000 nM
// note: answer is a bare numeric in %

COMPOUND	percent inhibition of viability, %
COc1cc(Nc2ncc3c(n2)-c2ccc(Cl)cc2C(c2c(F)cccc2OC)=NC3)ccc1C(=O)O [Alisertib] (max concentration tested 10000 nM)	29.6
NC(=O)c1ccc(I)c([N+](=O)[O-])c1 [Iniparib] (max concentration tested 10000 nM)	30.1

Now for a further compound.
Report percent inhibition of viability for CCc1nc(-c2cccc(C)c2)c(-c2ccnc(NC(=O)c3ccccc3)c2)s1 [TAK-715] (max concentration tested 10000 nM) please.
23.5

----------
Here, each record is paired with measured percent inhibition of viability data.
- System: normal primary NK cells, pool 3 (3 donors) (IL-2 2.5 ng/mL)
- ASSAY_TEXT: percent inhibition of viability; higher = more inhibition
- STUDY_CONDITIONS: 72 h; 10 nM
Give your result in % as a bare value.

These solved cases illustrate the format of a correct answer.
COMPOUND	TESTED_SYSTEM	UNIT_STRING	percent inhibition of viability
COc1cc(F)c(F)c(Nc2ccc(I)cc2F)c1NS(=O)(=O)C1(C[C@H](O)CO)CC1 [Refametinib] (max concentration tested 10000 nM)	normal primary NK cells, pool 3 (3 donors) (IL-2 2.5 ng/mL)	%	5.75
O=C(/C=C/c1cccnc1)NCCCCC1CCN(C(=O)c2ccccc2)CC1 [Daporinad] (max concentration tested 1000 nM)	normal primary NK cells, pool 3 (3 donors) (IL-2 2.5 ng/mL)	%	98.6
CCc1c2c(nc3ccc(OC(=O)N4CCC(N5CCCCC5)CC4)cc13)-c1cc3c(c(=O)n1C2)COC(=O)[C@]3(O)CC [Irinotecan] (max concentration tested 10000 nM)	normal primary NK cells, pool 3 (3 donors) (IL-2 2.5 ng/mL)	%	8.16
N#CC(c1ccnc(OCc2ccc(CN3CCOCC3)cc2)n1)c1nc2ccccc2s1 (stereo unspecified) [Bentamapimod] (max concentration tested 10000 nM)	normal primary NK cells, pool 3 (3 donors) (IL-2 2.5 ng/mL)	%	-9.78
CC(=O)NCC(=O)N1[C@@H]2CC[C@H]1c1ccc(Nc3ncc(C(F)(F)F)c(NC4CCC4)n3)cc12 (max concentration tested 10000 nM)	normal primary NK cells, pool 3 (3 donors) (IL-2 2.5 ng/mL)	%	-9.96

GET /values?readout=percent inhibition of viability&system=normal primary NK cells, pool 3 (3 donors) (IL-2 2.5 ng/mL)&item= CN(C)c1cc2c(cc1Sc1nc3c(N)nccc3n1CCNCC(C)(C)C)OCO2 [CUDC-305] (max concentration tested 10000 nM)
2.98

----------
- Tested on: normal NK cells expanded with K562-aAPC
- ASSAY_TEXT: percent inhibition of viability; higher = more inhibition
- STUDY_CONDITIONS: 72 h; IL-2 2.5 ng/mL; 1000 nM
percent inhibition of viability values for the compounds below.
Quick note: give the figure in %, leave out the unit.

Some solved entries appear below for comparison.
COMPOUND	DATA_VALUE
O=c1cc(N2CCOCC2)oc2c(-c3ccccc3)cccc12 (max concentration tested 100000 nM)	4.76
CN(c1ccccc1CNc1nc(Nc2ccc3c(c2)CC(=O)N3)ncc1C(F)(F)F)S(C)(=O)=O (max concentration tested 10000 nM)	58
O=C(/C=C\n1cnc(-c2cc(C(F)(F)F)cc(C(F)(F)F)c2)n1)NNc1cnccn1 [Selinexor] (max concentration tested 10000 nM)	96.5
CC(C)C[C@@H](C(=O)N[C@H](C(=O)OC1CCCC1)c1ccccc1)[C@H](O)C(=O)NO [Tosedostat] (max concentration tested 10000 nM)	15.4
Cc1cnc(NC(=O)Nc2cc(Br)c(C)cc2OC[C@@H]2CNCCO2)cn1 [Rabusertib] (max concentration tested 1000 nM)	55.7

Okay, now this compound:
Please look up its percent inhibition of viability: CN1CC[C@H](c2c(O)cc(O)c3c(=O)cc(-c4ccccc4Cl)oc23)[C@H](O)C1 [Alvocidib] (max concentration tested 10000 nM)
100

----------
Listing of recorded percent inhibition of viability by entry.
- System: NK-92 (IL-2 2.5 ng/mL)
- ASSAY_TEXT: percent inhibition of viability; higher = more inhibition
- STUDY_CONDITIONS: 72 h; 1000 nM
Give the quantity in %, number only.

// returns reported percent inhibition of viability for input CNC(=O)c1cc(Oc2ccc(NC(=O)Nc3cc(C(C)(C)C)nn3-c3ccc4ncccc4c3)c(F)c2)ccn1 [Rebastinib] (max concentration tested 1000 nM)
-12.8

----------
- Tested on: NK-92 (IL-2 2.5 ng/mL)
- ASSAY_TEXT: percent inhibition of viability; higher = more inhibition
- STUDY_CONDITIONS: 72 h; 1 nM
// values below are reported percent inhibition of viability
Please state the figure in %; there is no need to write the unit.

Use the examples below as a reference point.
COMPOUND	percent inhibition of viability [%]
COc1cc(O)c2c(c1)/C=C/C[C@H](O)[C@H](O)C(=O)/C=C\C[C@H](C)OC2=O [(5Z)-7-Oxozeaenol] (max concentration tested 10000 nM)	-20.1
COc1cc2ncnc(Nc3ccc(F)c(Cl)c3)c2cc1OCCCN1CCOCC1 [Gefitinib] (max concentration tested 10000 nM)	-2.12

Please find the next compound below.
Query (compound): O=C(Nc1cccc(Cl)c1)Nc1ncc(CCNc2ncnc3ccsc23)s1 [SNS-314] (max concentration tested 1000 nM) ; field requested: percent inhibition of viability
-1.72

----------
- System: DERL-7 (IL-2 2.5 ng/mL)
- ASSAY_TEXT: percent inhibition of viability; higher = more inhibition
- STUDY_CONDITIONS: 72 h; 100 nM
Overview of recorded percent inhibition of viability for various molecules
Respond numerically; units are % and should not be typed.

MOLECULE	TESTED_SYSTEM	DATA_VALUE
CC[C@]1(O)C[C@@H]2CN(CCc3c([nH]c4ccccc34)[C@@](C(=O)OC)(c3cc4c(cc3OC)N(C)[C@H]3[C@@](O)(C(=O)OC)[C@H](OC(C)=O)[C@]5(CC)C=CCN6CC[C@]43[C@@H]65)C2)C1 [Vinblastine] (max concentration tested 1000 nM)	DERL-7 (IL-2 2.5 ng/mL)	101

// lookup percent inhibition of viability for Cn1cc(C2=Nc3cc(NC(=O)C(N)C4CCCCC4)cc4c3C2=CNNC4=O)cn1 (stereo unspecified) (max concentration tested 10000 nM)
4.6

Try COc1cc(F)c(F)c(Nc2ccc(I)cc2F)c1NS(=O)(=O)C1(C[C@H](O)CO)CC1 [Refametinib] (max concentration tested 10000 nM) next.
30.2

How about COc1cc2ncnc(Nc3ccc(F)c(Cl)c3)c2cc1OCCCN1CCOCC1 [Gefitinib] (max concentration tested 10000 nM) ?
5.77

CCn1c(-c2nonc2N)nc2c(C#CC(C)(C)O)ncc(OC[C@H]3CCCNC3)c21 (max concentration tested 10000 nM) ?
17.3

Likewise for CC1=C(/C=C/C(C)=C/C=C/C(C)=C/C(=O)O)C(C)(C)CCC1 [Tretinoin] (max concentration tested 10000 nM) ?
-17.2

Moving on to CC1(C)CCC(CN2CCN(c3ccc(C(=O)NS(=O)(=O)c4ccc(NCC5CCOCC5)c([N+](=O)[O-])c4)c(Oc4cnc5[nH]ccc5c4)c3)CC2)=C(c2ccc(Cl)cc2)C1 [Venetoclax] (max concentration tested 10000 nM)
36.3

Moving on to the next molecule: CN1CCN(c2cc(C(=O)Nc3ccc4c(c3)-c3c(c(C(N)=O)nn3-c3ccc(F)cc3)CC4)c(Cl)cn2)CC1 [PHA 408] (max concentration tested 10000 nM)
2.16

How about CN(C)c1cc2c(cc1Sc1nc3c(N)nccc3n1CCNCC(C)(C)C)OCO2 [CUDC-305] (max concentration tested 10000 nM) ?
22.4

And what about the molecule CC(C)Oc1ccc(C(=O)N[C@H](CNC(=O)CN(C)C)Cc2ccc(-c3cn4cccc([C@H](C)O)c4n3)cc2)cc1Cl (max concentration tested 10000 nM) ?
70.1

Next: O=c1[nH]c(=O)n([C@H]2C[C@H](O)[C@@H](CO)O2)cc1F [Floxuridine] (max concentration tested 10000 nM)
44.1
